Reference source for all entries: the supplement of paper PMC4962491

- Test system: FaDu
- test summary: mitochondrial oxygen consumption rate normalised to cell number, Z score over the library; higher = higher oxygen consumption (negative = OCR reduction)
- condition description: treatment time 24 h; assay medium: 5 mM galactose, 5 mM pyruvate, 4 mM glutamine; 10 µM
Whole data set: some 1,600 compounds, median “mitochondrial oxygen consumption rate normalised to cell number, Z score over the library” near 0.065, cut for the lowest 2% near -2.2. Many of the other results were omitted from the sample, so the lowest values are more common in it than they were.
Binary call on mitochondrial oxygen consumption rate normalised: Criterion met from 0.2 upward, Criterion not met beneath that.

Worked examples follow.
# molecule, category
rows = [
    ("CC(=O)NC1CCSC1=O (stereo not given)", "Criterion met"),
    ("CCC1(CC)C(=O)C=CNC1=O", "Criterion met"),
    ("CNC(C)C(O)c1ccccc1 (stereo not given)", "Criterion not met"),
    ("O=c1[nH]c2ccccc2n1CCCN1CCC(n2c(=O)[nH]c3cc(Cl)ccc32)CC1", "Criterion not met"),
    ("COC(C)(C)CCC[C@H](C)C/C=C/C(C)=C/C(=O)OC(C)C", "Criterion met"),
]

-- ask Is mitochondrial oxygen consumption rate normalised at least 0.2? Consider N.N.[Cl][Pt][Cl]
-- reply Criterion met

-- ask Is mitochondrial oxygen consumption rate normalised at least 0.2? Consider CN(C)C(=S)SSC(=S)N(C)C
-- reply Criterion met

-- ask Is mitochondrial oxygen consumption rate normalised at least 0.2? Consider CCOC(=O)NC(=S)Nc1ccccc1NC(=S)NC(=O)OCC
-- reply Criterion not met

-- ask Is mitochondrial oxygen consumption rate normalised at least 0.2? Consider O=c1[nH]c2ccccc2n1C1CCN(CCCC(c2ccc(F)cc2)c2ccc(F)cc2)CC1
-- reply Criterion not met

-- ask Is mitochondrial oxygen consumption rate normalised at least 0.2? Consider CCNC1(c2cccs2)CCCCC1=O (stereo not given)
-- reply Criterion not met
